Value source: the RNAGym collection of RNA variant scans (doi:10.1073/pnas.2313332121)

Provide the reported polymerase ribozyme fitness (log ratio) of each item.
B1: TPR t1 (parent)
chain: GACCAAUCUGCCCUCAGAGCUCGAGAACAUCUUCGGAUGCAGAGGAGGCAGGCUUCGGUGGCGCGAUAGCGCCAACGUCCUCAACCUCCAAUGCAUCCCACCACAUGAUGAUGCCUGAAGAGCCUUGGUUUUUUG

variants of: B1; assay: polymerase ribozyme fitness, log enrichment relative to wild type (log ratio); higher = more active; in vitro selection for triplet polymerase activity
One number for each entry.

Take a look at these entries with their results.
changes | number
C13G G23U A29C G69A C97A U112G U126G | -6.55
C8G A91U A95C | -1.32
C72G U106A | -0.511
A95C C97U | -2.11
U59G C82U G93U U96C C123U | -0.453
G17A G110A | -4.08
A37C G60U C101G | -1.57
U7G A103C G120A | -2.83
G17U G45U G61U U81A | -3.74
C12U G19A G45U | -2.71

Query variant follows.
Request: For C53U G113C , what is its reported polymerase ribozyme fitness (log ratio)?
Response: -1.77
